Assay procedure: qHTS screen for small molecules that inhibit ELG1-dependent DNA repair: Hit Confirmation with Unstimulated Viability Assay;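 also: compound exposure lasted 16 hours before reading; nearly all actives have a fitted effect of over 55% in size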
Condition parameters: cell viability counter-screen, luminescence; series mostly up to 45.9 µM
Some of the results follow. Results filed as inconclusive are left out. Activity calls are given as the source filed them. Calls follow the shape of the dose curve; as a rule, active = well fitted cell-killing curve with a large enough effect; inconclusive = small, poorly fitted or top-dose-only effect; inactive = flat fitted curve, though single readings scatter.
Outcome (select one): Y = active, N = inactive

Example entries and their recorded answers appear below.
Please state the recorded outcome for this compound: COc1ccc(-c2nn(-c3ccccc3)cc2/C=C\C(=O)N2CCOCC2)cc1[N+](=O)[O-]
N

Please state the recorded outcome for this compound: CS(=O)c1ccc(/C=C2\C=Cc3ccccc32)cc1 (stereo not given)
N

Please state the recorded outcome for this compound: CN(C)c1ccnc2sc3c(=O)n(Cc4ccccc4)cnc3c12
N

Please state the recorded outcome for this compound: NC(=O)c1sc2nc3c(c(-c4ccccc4)c2c1N)CCC3
N

Please state the recorded outcome for this compound: CC(=O)N1CCc2cc(Br)cc(S(=O)(=O)CCC(=O)Nc3c(C)n(C)n(-c4ccccc4)c3=O)c21
N

Please state the recorded outcome for this compound: Cc1ccccc1NC(=O)CSc1nc2ccc(Nc3nc(N4CCOCC4)nc(N4CCOCC4)n3)cc2s1
N

New cases:
Please state the recorded outcome for this compound: OCCCNc1nccc(-c2cc(Nc3cccc(Cl)c3)ncn2)n1
Y

Please state the recorded outcome for this compound: CS(=O)(=O)c1ccc2nc(NC(=O)C3CCCCC3)sc2c1
N

Please state the recorded outcome for this compound: COc1ccc(NC(=O)C2CCC(CNc3c(N4CCCCC4)c(=O)c3=O)CC2)c(OC)c1 (stereo not given)
Y

Please state the recorded outcome for this compound: CN(CC1CCCO1)S(=O)(=O)c1ccc(C(=O)Nc2ccc(F)cc2)cc1 (stereo not given)
N
